- Assay Notes: Intrapulmonary (ELF, AC) and plasma pharmacokinetics after multiple-dose IV relebactam with imipenem-cilastatin, bronchoscopy/BAL, noncompartmental analysis
- Assay type: in vivo, human (healthy subjects)
- Stated Conditions: both sexes, human, AC/plasma, intravenous, same regimen; 0.5 to 3 h after last dose; read-out: GMRs for AC/plasma concentrations, range across time points
Measurement Name: Kp

Suppose we examine the compound O=C(NC1CCNCC1)[C@@H]1CC[C@@H]2CN1C(=O)N2OS(=O)(=O)O ; what Kp value has been reported?
0.14 to 0.51

* * *

- Assay Notes: Intrapulmonary (ELF, AC) and plasma pharmacokinetics after multiple-dose IV relebactam with imipenem-cilastatin, bronchoscopy/BAL, noncompartmental analysis
- Format: in vivo, human (healthy subjects)
- Stated Conditions: both sexes, human, AC/plasma, intravenous, same regimen; 0.5 h after last dose; n=4; read-out: AC/plasma concn GMR (90% CI)
Measurement Name: Kp at 0.5 h
// print number alone

Suppose we examine the molecule O=C(NC1CCNCC1)[C@@H]1CC[C@@H]2CN1C(=O)N2OS(=O)(=O)O ; what Kp at 0.5 h value has been reported?
0.14
